Sourced from patent US9499553B2

test.system: human NaPi-IIb (Homo sapiens)
Construct: expressed in transfected cells
Sequence (O95436 whole entry): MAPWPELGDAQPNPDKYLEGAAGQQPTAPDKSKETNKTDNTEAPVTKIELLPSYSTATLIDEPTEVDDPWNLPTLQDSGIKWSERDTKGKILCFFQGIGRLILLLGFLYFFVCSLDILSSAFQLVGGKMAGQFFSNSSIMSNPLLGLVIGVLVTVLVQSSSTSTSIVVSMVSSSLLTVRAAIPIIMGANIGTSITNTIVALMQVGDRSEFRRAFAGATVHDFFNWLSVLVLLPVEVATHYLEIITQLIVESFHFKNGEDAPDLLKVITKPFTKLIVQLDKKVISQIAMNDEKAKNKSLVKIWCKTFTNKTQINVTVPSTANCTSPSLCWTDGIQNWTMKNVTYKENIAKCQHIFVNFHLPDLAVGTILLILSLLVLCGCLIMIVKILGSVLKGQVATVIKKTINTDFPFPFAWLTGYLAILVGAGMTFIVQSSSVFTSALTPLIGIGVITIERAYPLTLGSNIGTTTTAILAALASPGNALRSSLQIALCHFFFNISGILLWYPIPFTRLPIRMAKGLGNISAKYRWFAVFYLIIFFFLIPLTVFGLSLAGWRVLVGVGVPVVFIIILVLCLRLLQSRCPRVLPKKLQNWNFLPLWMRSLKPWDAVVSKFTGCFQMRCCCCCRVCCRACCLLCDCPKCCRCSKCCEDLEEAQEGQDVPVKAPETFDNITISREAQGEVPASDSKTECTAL
test.details: Inhibitory effect on 33PO4 uptake into human NaPi-IIb-expressing CHO cells
Assay type: cell-based
assay.setup: read-out: IC50
Counter-ions that a name gives are not always drawn.
IC50 less than 8 µM is Condition met; IC50 greater than or equal to 8 µM is Condition not met.

Worked cases, answers included:
compound	qualitative.label
C[C@]12CCCN1N(Cc1c(Cl)cc(OCCN3CCOCC3)cc1Cl)C(=O)C(C(=O)Nc1ccc(C(F)(F)F)nc1-c1ccc(C(F)(F)F)nc1)=C2O [Example 148, hydrochloride]	Condition not met
CN1N(Cc2cccc(F)c2F)C(=O)C(C(=O)Nc2ccc(Br)c(C(F)(F)F)n2)=C(O)C12CCCC2	Condition met

query: A record lists `CN1N(Cc2cccc(F)c2F)C(=O)C(C(=O)Nc2ccc(C(F)(F)F)cc2-c2ccc(S(=O)(=O)N(C)C)cc2)=C(O)C1(C)C` . Is its IC50 below 8 µM?
result: Condition not met

query: A record lists `COc1cccc(-c2cc(C(F)(F)F)ccc2NC(=O)C2=C(O)[C@@]3(C)CCCN3N(Cc3ccc(OCc4ccncc4)c(F)c3F)C2=O)c1OC` . Is its IC50 below 8 µM?
result: Condition not met

query: A record lists `CCOc1cccc(-c2cc(C(F)(F)F)ccc2NC(=O)C2=C(O)[C@@]3(C)CCCN3N(Cc3cccc(F)c3F)C2=O)c1OC` . Is its IC50 below 8 µM?
result: Condition not met

----------
Listed here: items and their measured IC50.
test.system: human NaPi-IIb (Homo sapiens)
Construct: expressed in transfected cells
test.details: Inhibitory effect on 33PO4 uptake into human NaPi-IIb-expressing CHO cells
Type: cell-based
assay.setup: read-out: IC50 against 33PO4 uptake into human NaPi-IIb-expressing cells
Give the value in µM but do not write µM after it.

compound	test.system	measurement
CN1N(Cc2ccc(OCCN3CCN(CCO)CC3)c(F)c2F)C(=O)C(C(=O)Nc2ccc(C(F)(F)F)cc2-c2cc(C(F)(F)F)ncn2)=C(O)C12CCC2 [Example 360]	human NaPi-IIb (Homo sapiens)	23.1
CN1N(Cc2ccc(OCCN[C@@H](CC(=O)O)C(=O)O)c(F)c2F)C(=O)C(C(=O)Nc2ccc(C(F)(F)F)cc2-c2cc(C(F)(F)F)ncn2)=C(O)C12CCCC2 [Example 381]	human NaPi-IIb (Homo sapiens)	22
CN1N(Cc2ccc(OCCOCCOCCOCCC(=O)NCC(O)CO)c(F)c2F)C(=O)C(C(=O)Nc2ccc(C(F)(F)F)cc2-c2cc(C(F)(F)F)ncn2)=C(O)C12CCCC2 (centres unmarked) [Example 424]	human NaPi-IIb (Homo sapiens)	29
CN1N(Cc2ccc(OCCCOC[C@H](O)CO)c(F)c2F)C(=O)C(C(=O)Nc2ccc(C(F)(F)F)cc2-c2cc(C(F)(F)F)ncn2)=C(O)C12CCC2 [Example 389]	human NaPi-IIb (Homo sapiens)	24.6
CN1N(Cc2ccc(OCCOCCOCCOCCNC(=O)[C@@H](O)[C@H](O)[C@@H](O)[C@@H](O)CO)c(F)c2F)C(=O)C(C(=O)Nc2ccc(C(F)(F)F)cc2-c2cc(C(F)(F)F)ncn2)=C(O)C12CCCC2 [Example 428]	human NaPi-IIb (Homo sapiens)	23
CN1N(Cc2ccc(OCCN(CCO)CCO)c(F)c2F)C(=O)C(C(=O)Nc2ccc(C(F)(F)F)cc2-c2cc(C(F)(F)F)ncn2)=C(O)C12CCC2 [Example 351]	human NaPi-IIb (Homo sapiens)	25.5

query: Entry CSC1CN(CCOc2ccc(CN3C(=O)C(C(=O)Nc4ccc(C(F)(F)F)cc4-c4cc(C(F)(F)F)ncn4)=C(O)C4(CCC4)N3C)c(F)c2F)C1 [Example 357] : reported IC50 = ?
result: 21.8

query: Entry CN(CCOCCOCCOCCOCCOc1ccc(CN2C(=O)C(C(=O)Nc3ccc(C(F)(F)F)cc3-c3cc(C(F)(F)F)ncn3)=C(O)C3(CCCC3)N2C)c(F)c1F)C[C@@H](O)[C@H](O)[C@@H](O)[C@@H](O)CO [Example 421] : reported IC50 = ?
result: 19.5

query: Entry CN1N(Cc2ccc(OCCCCOCCO)c(F)c2F)C(=O)C(C(=O)Nc2ccc(C(F)(F)F)cc2-c2cc(C(F)(F)F)ncn2)=C(O)C12CCCC2 [Example 396] : reported IC50 = ?
result: 9.5

query: Entry COCCN1CC[C@@H](Oc2ccc(CN3C(=O)C(C(=O)Nc4ccc(C(F)(F)F)cc4-c4cc(C(F)(F)F)ncn4)=C(O)C4(CCC4)N3C)c(F)c2F)C1 [Example 405] : reported IC50 = ?
result: 27.7

query: Entry COCCN(C)CCOc1c(-c2cccnc2)cc(CN2C(=O)C(C(=O)Nc3ccc(C(F)(F)F)cc3-c3cc(C(F)(F)F)ncn3)=C(O)C3(CCCC3)N2C)c(F)c1F [Example 440] : reported IC50 = ?
result: 22.6
